# Test system: PBMC
# assay_comment: Cytotoxicity against human PBMC assessed as reduction in cell viability at 1 to 100 ug/ml after 24 hrs by MTT assay
# Format: cell-based
parameter: Activity

item_smiles	parameter	measured_result
CC[C@H](C)[C@H](N)C(=O)N[C@H](C(=O)N[C@@H](CC(C)C)C(=O)N[C@H](C(=O)N1CCC[C@H]1C(=O)N1CCC[C@H]1C(=O)N[C@H](CCC(=O)N[C@@H](Cc1ccccc1)C(=O)N[C@@H](CC(C)C)C(=O)O)Cc1ccccc1)C(C)C)[C@@H](C)CC	Activity	Non-Toxic
CC[C@H](C)[C@H](N)C(=O)N[C@H](C(=O)N[C@@H](CC(C)C)C(=O)N[C@H](C(=O)N1CCC[C@H]1C(=O)N1CCC[C@H]1C(=O)N[C@@H](Cc1ccccc1)C(=O)N[C@@H](CCC(=O)N[C@@H](CC(C)C)C(=O)O)Cc1ccccc1)C(C)C)[C@@H](C)CC	Activity	Non-Toxic
CC[C@H](C)[C@H](N)C(=O)N[C@H](C(=O)N[C@@H](CC(C)C)C(=O)N[C@H](C(=O)N1CCC[C@H]1C(=O)N1CCC[C@H]1C(=O)N[C@@H](CCC(=O)N[C@@H](Cc1ccccc1)C(=O)N[C@@H](CC(C)C)C(=O)O)Cc1ccccc1)C(C)C)[C@@H](C)CC	Activity	Non-Toxic
CC[C@H](C)[C@H](N)C(=O)N[C@H](C(=O)N[C@@H](CC(C)C)C(=O)N[C@H](C(=O)N1CCC[C@H]1C(=O)N1CCC[C@H]1C(=O)N[C@H](CCC(=O)N[C@@H](CCC(=O)N[C@@H](CC(C)C)C(=O)O)Cc1ccccc1)Cc1ccccc1)C(C)C)[C@@H](C)CC	Activity	Non-Toxic
